Taken from patent US20250388574A1.

target: hTREM2 (Homo sapiens, UniProt Q9NZC2); test: Phospho-Syk AlphaScreen/AlphaLISA assay in TREM2 and DAP12 overexpressing HEK293 cells (Example A1); type: cell-based; design: expressed in transfected cells; details: HEK293 cells, read-out: hTREM2 EC50
Sequence (Q9NZC2 19-230): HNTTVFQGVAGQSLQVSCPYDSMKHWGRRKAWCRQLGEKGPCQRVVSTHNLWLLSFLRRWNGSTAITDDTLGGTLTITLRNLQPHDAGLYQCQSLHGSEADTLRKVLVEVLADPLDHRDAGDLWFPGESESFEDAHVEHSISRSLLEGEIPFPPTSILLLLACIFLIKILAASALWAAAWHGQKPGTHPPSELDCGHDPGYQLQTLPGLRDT
Sequence (O43914 22-113 partner): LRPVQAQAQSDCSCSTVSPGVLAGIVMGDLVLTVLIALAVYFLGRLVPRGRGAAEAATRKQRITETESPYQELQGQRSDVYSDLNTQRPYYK
pEC50: −log10 of the molar value.
experimental-endpoint: pEC50

pEC50 lookup needed for `Cc1nc2cc(N3CCC(F)(F)[C@H](N(C)C)C3)nc(-c3ccc(Cl)cc3F)c2c(=O)n1C` , thanks.
4.00 to 5.52

And then `Cc1nc2cc(N3CCO[C@@H](c4cnn(C)c4)C3)nc(-c3ccc(F)c(F)c3F)c2c(=O)n1C` , what is it?
6.30 to 7.30

And then Cc1nnc([C@@H]2CN(c3cc4nc(C)n(C)c(=O)c4c(-c4ccc(Cl)cc4F)n3)CCO2)o1 (single isomer, unassigned) , what is it?
5.52 to 6.30

And then Cc1nc2cc(N3CCO[C@@H](c4ccc(Cl)cc4)C3)nc(-c3ccc(Cl)cc3F)c2c(=O)n1C (single isomer, unassigned) , what is it?
5.52 to 6.30

And then `Cc1nc2cc(N3CCO[C@H](c4cccc(Cl)c4)C3)nc(-c3ccc(Cl)cc3F)c2c(=O)n1C` , what is it?
4.00 to 5.52

And then `Cc1nc2cc(N3CCO[C@](C)(c4cnn(C)c4)C3)nc(-c3ccc(Cl)cc3F)c2c(=O)n1C` , what is it?
5.52 to 6.30

And then Cc1nc2cc(N3CCO[C@H](c4cnn(C)c4)C3)cc(-c3ccc(Cl)cc3F)c2c(=O)n1C [Example 4] , what is it?
5.52 to 6.30
